Assay: Primary qHTS for inhibitors of nuclear receptor binding SET domain protein 2 (NSD2) in an isogenic RCH-ACV NSD2 p.E1099K mutant (9B) (AID 1645876); note: nearly all actives have a fitted effect of over 70% in size; for activity change, negative = viability loss: % is set by controls: 0 for no effect and ±100 for the full control effect
Details: RCH-ACV (leukaemia line) NSD2 E1099K (9B) viability, CellTiter-Glo, 72 h; series mostly up to 44.9 µM
Results filed as inconclusive are left out. Calls of active or inactive are those of the source. Calls come from the whole dose curve; as a rule, active = well fitted inhibition curve with a large enough effect; inconclusive = small, poorly fitted or top-dose-only effect; inactive = flat fitted curve, though single readings scatter.
QUANTITY_NAME: activity change, negative = viability loss

Examples from the recorded data:
COMPOUND | RESULT
COc1ccc(C(O[C@@H]2O[C@H](CO)[C@@H](O)[C@H](O)[C@H]2O)C(CO)Oc2ccc(/C=C/CO)cc2OC)cc1O (stereo not given in full) | inactive
Cc1nn(C)c(COc2ccc(N3CCN(S(=O)(=O)N(C)C)CC3)cc2)c1-c1cccc2c(CCCOc3cccc4ccccc34)c(C(=O)O)n(CCN3CCOCC3)c12 | inactive
CC(C)C(=O)O[C@@H]1[C@@H](O)[C@@H](O[C@H]2O[C@H](CO)[C@@H](O)[C@H](O)[C@H]2O)O[C@H](CO)[C@H]1O | inactive
CC(=O)O[C@@H]1C[C@]2(C)[C@@]3(CCC4[C@@]5(C)CC[C@H](O[C@@H]6O[C@H](C(=O)O)[C@@H](O)[C@H](O[C@@H]7O[C@H](CO)[C@H](O)[C@H](O)[C@H]7O[C@@H]7O[C@@H](C)[C@H](O)[C@@H](O)[C@H]7O[C@@H]7OC[C@](O)(CO)[C@H]7O)[C@H]6O[C@@H]6O[C@H](CO)[C@H](O)[C@H](O)[C@H]6O)C(C)(C)C5CC[C@]42C)O[C@@H](O)[C@]12C3CC(C)(C)[C@@H](OC(=O)/C=C/c1ccc(O)c(O)c1)[C@@H]2OC(=O)/C=C/c1ccccc1 (stereo not given in full) | -5.24% [at 9.23 µM] (inactive)

We next turn to a different compound, shown below.
Ask: If you can, please state the reported activity change, negative = viability loss value of C[C@@H]1C/C=C/C=C\C=C\C=C\[C@H](O[C@@H]2O[C@H](C)[C@@H](O)[C@H](N)[C@@H]2O)C[C@@H]2O[C@](O)(C[C@@H](O)C[C@H]3O[C@@H]3/C=C/C(=O)O1)C[C@H](O)[C@H]2C(=O)O .
Reply: inactive
